- EXPERIMENT: Inhibition of Hedgehog signaling pathway in mouse TM3 cells bearing pTA-8xGli-Luc reporter construct assessed as transcriptional modulation of Gli after 48 hrs by luciferase assay
- CONDITION DETAILS: TM3, 48 h
MEASUREMENT KIND: IC50 (nM)

Example molecules with recorded IC50:
> print(dat)
                                   molecule  measurement.kind  units.text  quantitative.result
1  COC(=O)NC1Cc2ccc(NC(=O)c3cccc(C)c3-c3ccc(C(F)(F)F)cc3)cc2C1 (racemic)              IC50          nM                 1330
2  Cc1cccc(C(=O)Nc2ccc3c(c2)C[C@@H](NC(C)c2ccccc2)C3)c1-c1ccc(C(F)(F)F)cc1 (stereo partly drawn)              IC50          nM                   88
3  COC(=O)N[C@@H]1Cc2ccc(NC(=O)c3cccc(C)c3-c3ccc(C(F)(F)F)cc3)cc2C1              IC50          nM                 1200

1. Cc1cccc(C(=O)Nc2ccc3c(c2)C[C@@H](NCc2scnc2C)C3)c1-c1ccc(C(F)(F)F)cc1
2. Cc1csc(CN[C@H]2Cc3ccc(NC(=O)c4cccc(C)c4-c4ccc(C(F)(F)F)cc4)cc3C2)n1
3. Cc1cccc(C(=O)Nc2ccc3c(c2)C[C@H](NCc2nccs2)C3)c1-c1ccc(C(F)(F)F)cc1
Req: Falling order of IC50, please. Provide the labels, sequenced as the question asks.
Resp: 3, 1, 2

1. Cc1cccc(C(=O)Nc2ccc3c(c2)CC(NS(=O)(=O)c2ccccc2)C3)c1-c1ccc(C(F)(F)F)cc1 (racemic)
2. Cc1cccc(C(=O)Nc2ccc3c(c2)C[C@@H](NCc2ccncc2)C3)c1-c1ccc(C(F)(F)F)cc1
Req: Field: lower recorded IC50 (choose 1 or 2 ) // output: label of the selected item
Resp: 2

Attribution: ChEMBL document CHEMBL1149081
